All values here come from the Immune Epitope Database (IEDB).

STUDY SYSTEM: HLA-A*29:02
TEST DETAILS: IEDB peptide-MHC binding, cellular MHC/competitive/fluorescence; bounds were set here for any values at or beyond the usual limits of such assays
EXPERIMENTAL CONDITIONS: source organism: Vaccinia virus WR
pIC50: −log10 of the molar value.
Each entry below carries its reported pIC50.

SEQ TEXT	COMPARISON SIGN	pIC50
LQQNNSFII	=	4.73
AQQFCQYLI	=	4.34
VQYRILPMII	≤	4.15
LQDIVNEHDI	≤	4.15
CQCTVQEFI	=	4.69
QQFANVISKI	≤	4.15
VQTIVFIWFI	=	4.69
YQNEVTPEYI	=	4.71
TQVKELGIAI	≤	4.15
RQVSVKLLI	≤	4.15
SQAKKPEVRI	≤	4.15

---

STUDY SYSTEM: HLA-A*68:01
TEST DETAILS: IEDB peptide-MHC binding, cellular MHC/competitive/fluorescence; bounds were set here for any values at or beyond the usual limits of such assays
EXPERIMENTAL CONDITIONS: source organism: Mammarenavirus lassaense
pIC50: −log10 of the molar value.

SEQ TEXT	pIC50
ALMSIISTFH	4.62

---

STUDY SYSTEM: HLA-A*68:02
TEST DETAILS: IEDB peptide-MHC binding, cellular MHC/competitive/fluorescence; bounds were set here for any values at or beyond the usual limits of such assays
EXPERIMENTAL CONDITIONS: source organism: Vaccinia virus WR
pIC50: −log10 of the molar value.
READOUT KIND: pIC50

SEQ TEXT	STUDY SYSTEM	READOUT KIND	COMPARISON SIGN	REPORTED RESULT
ITGNKVKTEL	HLA-A*68:02	pIC50	≤	4.15
NIKISLNEI	HLA-A*68:02	pIC50	=	4.70
CVRNLEELTT	HLA-A*68:02	pIC50	=	4.48
KTIISEEYL	HLA-A*68:02	pIC50	=	4.96
DAKRNSKSLV	HLA-A*68:02	pIC50	=	4.90
NMDKVSAQNI	HLA-A*68:02	pIC50	=	4.43
KLFKRERDA	HLA-A*68:02	pIC50	=	4.45
QVKDNIISRT	HLA-A*68:02	pIC50	=	4.62
PTIEDDKIVT	HLA-A*68:02	pIC50	≤	4.15
YISRDELWA	HLA-A*68:02	pIC50	=	4.28
SMKGENVFI	HLA-A*68:02	pIC50	=	5.03
GMMQNDYGGM	HLA-A*68:02	pIC50	=	4.58
DVCKKNLDL	HLA-A*68:02	pIC50	=	4.39
PAMSTYSDI	HLA-A*68:02	pIC50	=	4.16
VMPEKRNVV	HLA-A*68:02	pIC50	=	5.18
DTGKKELALT	HLA-A*68:02	pIC50	=	5.00
LIYRQLTSNV	HLA-A*68:02	pIC50	=	5.19
GLSASDVDM	HLA-A*68:02	pIC50	≤	4.15
ITLVVISVI	HLA-A*68:02	pIC50	=	5.22
NLCKYLRGHT	HLA-A*68:02	pIC50	=	4.91
GIAIFNNRNL	HLA-A*68:02	pIC50	=	4.96
CLLTDTIESA	HLA-A*68:02	pIC50	=	4.65
VLEKKVCAI	HLA-A*68:02	pIC50	=	4.34
EIKAEMQLKI	HLA-A*68:02	pIC50	=	5.29
FTEEQQQSFM	HLA-A*68:02	pIC50	=	5.09
AAVTLNRIKI	HLA-A*68:02	pIC50	=	5.22
MLDDFSAGA	HLA-A*68:02	pIC50	=	4.98
PVIVPDIKL	HLA-A*68:02	pIC50	=	4.52
FVKKMLPKII	HLA-A*68:02	pIC50	=	4.85
KINPLLDEPL	HLA-A*68:02	pIC50	=	5.00
CLTVPNITI	HLA-A*68:02	pIC50	=	5.10
IMRNFLRSI	HLA-A*68:02	pIC50	=	4.20
PLPCQLMYAL	HLA-A*68:02	pIC50	=	4.51
AIKQYGDIDL	HLA-A*68:02	pIC50	=	4.41
MISTYPGNT	HLA-A*68:02	pIC50	=	4.83
RIKSVLDII	HLA-A*68:02	pIC50	=	4.84
LLVQYGAKI	HLA-A*68:02	pIC50	=	5.19
VMHINSPFKV	HLA-A*68:02	pIC50	=	5.20
PLTLLIKTL	HLA-A*68:02	pIC50	=	5.21
LILSNKLLYA	HLA-A*68:02	pIC50	=	5.01
KTRLFRSPQV	HLA-A*68:02	pIC50	=	5.21
IINSVSIIL	HLA-A*68:02	pIC50	=	4.52
GVSGLYIPGT	HLA-A*68:02	pIC50	=	4.80
RLEVIGLTT	HLA-A*68:02	pIC50	=	4.88
